# TEST_SUMMARY: Photobleaching of stained standard proteins in gel under UV transilluminator
# Format: physicochemical
# ASSAY_CONDITIONS: protein-stained gel, first-order exponential decay fit, deduced from FIG. 1
Each record is given satisfied if its reported Half-life time is strictly below 20 min. Records at or above 20 min are given not satisfied.

// known answers, use as guide
# MOLECULE, GROUP_LABEL
rows = [
    ("CC1(C)CC2=CC3=C(/C(O)=C/C(=O)c4ccc(Cl)nc4)C(=O)OC3(C)C(=O)C2=CO1 (stereo not drawn)", "not satisfied"),
    ("CC1(C)CC2=CC3=C(C(=O)/C=C(\\O)c4ccccc4)C(=O)OC3(C)C(=O)C2=CO1 (stereo not drawn)", "not satisfied"),
    ("COc1ccc(/C(O)=C/C(=O)C2=C3C=C4CC(C)OC=C4C(=O)C3(C)OC2=O)cc1 (stereo not drawn)", "satisfied"),
    ("COc1ccc(/C(O)=C/C(=O)C2=C3C=C4CC(C)(C)OC=C4C(=O)C3(C)OC2=O)cc1 (stereo not drawn)", "satisfied"),
    ("CC1(C)CC2=CC3=C(C(=O)/C=C(\\O)c4ccc5ccccc5c4)C(=O)OC3(C)C(=O)C2=CO1 (stereo not drawn)", "not satisfied"),
]

API: the following record is the query input.
Lookup: Please check: Half-life time for C/C=C/C=C/C=C/C(=O)/C=C(\O)C1=C2C=C3C[C@@H](CO)OC=C3C(=O)[C@@]2(C)OC1=O [epicocconone, reference compound] , strictly under 20 min or not?
Found: satisfied
